# assayText: Cytotoxicity on L6 cells
# testContext: rat, L6 cells, IC50 Cytotox. L6, L6 cells; means of two independent assays
Where a name gives a salt, the structure may show the parent alone.
Define the label as Y when IC50 is strictly less than 50 µM and as N in all remaining cases.

Reference set, count: 2
Problem: Record `Cn1c([N+](=O)[O-])cnc1N1CCN(S(C)(=O)=O)C1=O` : is its IC50 strictly below 50 µM?
Result: N

Problem: Another compound to check: `Cc1nc2ccccn2c(=O)c1CCN1CCC(C(=O)c2ccc(F)cc2)CC1`
Result: N

Others:
Problem: Record `CCC[C@@]1(CCc2ccccc2)CC(O)=C([C@H](CC)c2cccc(NS(=O)(=O)c3ccc(C(F)(F)F)cn3)c2)C(=O)O1` : is its IC50 strictly below 50 µM?
Result: N

Problem: Another compound to check: `OC(Cn1cncn1)(Cn1cncn1)c1ccc(F)cc1F`
Result: N

Problem: Another compound to check: `CN1CCN(CCCN2c3ccccc3Sc3ccc(C(F)(F)F)cc32)CC1`
Result: Y

Problem: Another compound to check: Clc1ccc(C(OCCN2CCCCC2)c2ccccc2)cc1 (centres unmarked)
Result: Y

Problem: Another compound to check: `Cc1cn([C@H]2C=C[C@@H](CO)O2)c(=O)[nH]c1=O`
Result: N

Problem: Another compound to check: CN(C/C=C/C#CC(C)(C)C)Cc1cccc2ccccc12 [Terbinafine (Hydrochloride), Terbinafine]
Result: Y

The measurements presented in this section are drawn from paper PMC4535766.
